# protocol-text: small-molecule binders of probe aLefty1, primary screen, biochemical, small-molecule microarray, 635/667 nm fluorescence (AID 1153);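 note: score merges spot fluorescence with signal-to-noise ratio from the scanned slide images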
# condition-details: higher = more signal
Param threshold (-0.01) applies to composite z-score; output 1.0 when value >= threshold, 0.0 when value < threshold.

Here's what some known entries look like.
>>> class_label("CO[C@H]1O[C@H](CO)[C@@H](OC(=O)Nc2ccccc2-c2ccccc2)[C@H](OC(=O)Nc2ccc3c(c2)OCO3)[C@@H]1OC(=O)Nc1ccc2c(c1)OCO2")
1.0
>>> class_label("COc1cc(CO)cc(I)c1O[C@H]1C=C(C(=O)NCCO)C[C@@H](N(Cc2ccc(F)cc2)C(=O)C2CCCO2)[C@@H]1O (some centres not stated)")
0.0
>>> class_label("NC(N)=NCc1cn(CCc2c[nH]c3ccccc23)nn1")
0.0
>>> class_label("NCCCCCNC(=O)[C@@H]1C[C@@H]2C(=O)N[C@@H](CCCCN)C(=O)N2[C@@H]1c1cccc(OCCO)c1")
0.0
>>> class_label("C[C@H]1C2=C3C(CC[C@H]4C(OCc5ccc(F)cc5C(F)(F)F)OC[C@](C)([C@@H]34)N(C(=O)OC(C)(C)C)C2)C(CO)C1CO (some centres not stated)")
1.0
>>> class_label("C=C(COC)/C(=C/C[C@@H](OC(=O)c1ccncc1)c1ccc(CO)o1)c1cnc2ccccc2c1")
1.0
>>> class_label("O=C1OC[C@@H](c2ccccc2)N2CC(/C=C/c3ccccc3)=CC12 (some centres not stated)")
0.0
>>> class_label("CCOC(=O)C[C@H]1[C@H](OC(=O)c2ccc(C(=O)c3ccccc3)cc2)[C@@H](NC(=O)c2ccc3ccccc3c2)c2cc(OCCCO)ccc2N1C(=O)c1ccccc1")
0.0

Threshold query (composite z-score >= -0.01) on C=CCOC(=O)[C@H]1[C@@H]2C(=O)O[C@@H](c3ccccc3)[C@@H](c3ccccc3)N2[C@@H](c2ccc(OCCOC(=O)[C@H]3C[C@H]4C(=O)N[C@@H](Cc5ccccc5)C(=O)N4[C@H]3c3cccc(OCCO)c3)cc2)[C@]12C(=O)Nc1ccc(I)cc12 1.0
